pIC50: −log10 of the molar value.
The listing below reports pIC50 for compounds tested on Cholinesterase (Equus caballus).
Sequence (P81908 whole entry): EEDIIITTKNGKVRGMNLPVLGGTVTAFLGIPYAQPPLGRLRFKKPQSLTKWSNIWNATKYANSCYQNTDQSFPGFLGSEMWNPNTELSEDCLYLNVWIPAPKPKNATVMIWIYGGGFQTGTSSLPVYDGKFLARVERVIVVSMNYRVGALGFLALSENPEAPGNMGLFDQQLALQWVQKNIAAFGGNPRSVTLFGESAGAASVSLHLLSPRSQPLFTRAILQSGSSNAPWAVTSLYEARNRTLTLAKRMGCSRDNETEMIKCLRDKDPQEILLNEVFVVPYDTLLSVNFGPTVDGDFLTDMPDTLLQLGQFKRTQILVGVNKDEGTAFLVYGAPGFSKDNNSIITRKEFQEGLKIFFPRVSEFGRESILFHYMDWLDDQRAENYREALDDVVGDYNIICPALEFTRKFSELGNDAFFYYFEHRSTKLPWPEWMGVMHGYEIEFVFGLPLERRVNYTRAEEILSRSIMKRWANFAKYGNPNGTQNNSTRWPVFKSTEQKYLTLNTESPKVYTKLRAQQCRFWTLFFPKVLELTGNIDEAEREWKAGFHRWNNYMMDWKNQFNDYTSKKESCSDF

Cpd Smiles | System | pIC50
O=C1c2ccccc2C(=O)N1CCCCCCCCNCc1ccccc1 | Cholinesterase (Equus caballus) | 5.91
O=C1c2ccccc2C(=O)N1CCCCCCCNCc1ccc(F)cc1 | Cholinesterase (Equus caballus) | 5.80
O=C1c2ccccc2C(=O)N1CCCCCCCCNCc1ccc(F)cc1 | Cholinesterase (Equus caballus) | 5.77
O=C1c2ccccc2C(=O)N1CCCCCCNCc1cccc(Cl)c1 | Cholinesterase (Equus caballus) | 5.34
O=C1c2ccccc2C(=O)N1CCCCCCCNCc1ccc(F)cc1F | Cholinesterase (Equus caballus) | 5.73
O=C1c2ccccc2C(=O)N1CCCCCCCCNCc1ccc(F)cc1F | Cholinesterase (Equus caballus) | 5.98
O=C1c2ccccc2C(=O)N1CCCCCCCNCc1ccccc1F | Cholinesterase (Equus caballus) | 5.62
O=C1c2ccccc2C(=O)N1CCCCCCCCNCc1cccc(Cl)c1 | Cholinesterase (Equus caballus) | 5.83
O=C1c2ccccc2C(=O)N1CCCCCCNCc1ccc(F)cc1 | Cholinesterase (Equus caballus) | 5.04
O=C1c2ccccc2C(=O)N1CCCCCCNCc1ccc(F)cc1F | Cholinesterase (Equus caballus) | 5.09
O=C1c2ccccc2C(=O)N1CCCCCCCNCc1cccc(Cl)c1 | Cholinesterase (Equus caballus) | 5.58
O=C1c2ccccc2C(=O)N1CCCCCCCCNCc1ccccc1F | Cholinesterase (Equus caballus) | 5.68
O=C1c2ccccc2C(=O)N1CCCCCCCNCc1ccccc1 | Cholinesterase (Equus caballus) | 5.77

###

Quick note: these are pIC50 numbers for system: Acetylcholinesterase (Homo sapiens)
Sequence (P22303 whole entry): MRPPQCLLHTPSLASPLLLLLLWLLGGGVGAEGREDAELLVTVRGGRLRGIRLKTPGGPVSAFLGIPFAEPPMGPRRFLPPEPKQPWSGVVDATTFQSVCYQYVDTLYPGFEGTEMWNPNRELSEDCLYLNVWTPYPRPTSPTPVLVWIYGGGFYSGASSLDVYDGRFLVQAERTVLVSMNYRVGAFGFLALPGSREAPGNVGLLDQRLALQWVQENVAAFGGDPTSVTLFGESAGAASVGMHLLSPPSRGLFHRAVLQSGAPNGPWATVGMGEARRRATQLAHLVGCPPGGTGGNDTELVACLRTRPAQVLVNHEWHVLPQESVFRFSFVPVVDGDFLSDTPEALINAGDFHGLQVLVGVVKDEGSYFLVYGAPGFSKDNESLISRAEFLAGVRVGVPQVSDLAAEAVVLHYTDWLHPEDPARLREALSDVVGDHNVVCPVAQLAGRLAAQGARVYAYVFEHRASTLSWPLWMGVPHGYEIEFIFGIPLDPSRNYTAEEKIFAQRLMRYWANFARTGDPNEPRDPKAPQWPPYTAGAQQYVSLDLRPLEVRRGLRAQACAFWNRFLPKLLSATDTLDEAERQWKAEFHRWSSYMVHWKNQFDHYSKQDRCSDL
pIC50: −log10 of the molar value.

Cpd Smiles | pIC50
O=C1c2ccccc2C(=O)N1CCCCCCCCNCc1ccccc1F | 6.26
O=C1c2ccccc2C(=O)N1CCCCCCNCc1ccc(F)cc1 | 5.50
O=C1c2ccccc2C(=O)N1CCCCCCNCc1ccccc1F | 6.03
O=C1c2ccccc2C(=O)N1CCCCCCCCNCc1ccc(F)cc1F | 6.24
O=C1c2ccccc2C(=O)N1CCCCCCCNCc1ccccc1F | 6.48
O=C1c2ccccc2C(=O)N1CCCCCNCc1ccc(F)cc1 | 6.57
O=C1c2ccccc2C(=O)N1CCCCCCCCNCc1ccccc1 | 6.30
O=C1c2ccccc2C(=O)N1CCCCCCNCc1ccccc1 | 5.68
O=C1c2ccccc2C(=O)N1CCCCCCCNCc1ccc(F)cc1F | 6.42
O=C1c2ccccc2C(=O)N1CCCCCCNCc1ccc(F)cc1F | 5.80
O=C1c2ccccc2C(=O)N1CCCCCNCc1cccc(Cl)c1 | 6.80
O=C1c2ccccc2C(=O)N1CCCCCCCNCc1ccccc1 | 6.52
O=C1c2ccccc2C(=O)N1CCCCCNCc1ccc(F)cc1F | 6.59
O=C1c2ccccc2C(=O)N1CCCCCNCc1ccccc1F | 6.77
O=C1c2ccccc2C(=O)N1CCCCCCNCc1cccc(Cl)c1 | 5.70
O=C1c2ccccc2C(=O)N1CCCCCCCNCc1cccc(Cl)c1 | 6.19
O=C1c2ccccc2C(=O)N1CCCCCCCNCc1ccc(F)cc1 | 6.36
O=C1c2ccccc2C(=O)N1CCCCCNCc1ccccc1 | 6.69
O=C1c2ccccc2C(=O)N1CCCCCCCCNCc1cccc(Cl)c1 | 6.16

###

pIC50: −log10 of the molar value.
Acetylcholinesterase (Electrophorus electricus): reported pIC50 for various molecules.
Sequence (O42275 whole entry): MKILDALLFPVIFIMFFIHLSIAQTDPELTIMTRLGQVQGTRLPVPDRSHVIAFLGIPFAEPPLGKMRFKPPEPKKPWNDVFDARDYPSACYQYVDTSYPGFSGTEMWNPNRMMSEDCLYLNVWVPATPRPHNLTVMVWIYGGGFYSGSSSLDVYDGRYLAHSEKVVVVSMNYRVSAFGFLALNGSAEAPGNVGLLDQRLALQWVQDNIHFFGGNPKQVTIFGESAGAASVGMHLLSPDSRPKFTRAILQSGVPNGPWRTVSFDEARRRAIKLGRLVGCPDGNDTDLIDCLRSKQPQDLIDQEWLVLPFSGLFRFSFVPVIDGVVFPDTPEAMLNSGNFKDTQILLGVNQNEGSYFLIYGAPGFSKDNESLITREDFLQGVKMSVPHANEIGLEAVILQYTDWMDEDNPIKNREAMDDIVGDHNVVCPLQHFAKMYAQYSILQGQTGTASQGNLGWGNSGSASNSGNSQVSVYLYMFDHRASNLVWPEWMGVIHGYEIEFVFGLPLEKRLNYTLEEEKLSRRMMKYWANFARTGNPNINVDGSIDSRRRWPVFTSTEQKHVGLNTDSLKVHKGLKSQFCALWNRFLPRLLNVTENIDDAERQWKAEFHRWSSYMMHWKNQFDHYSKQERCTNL

Cpd Smiles | pIC50
O=C1c2ccccc2C(=O)N1CCCCCCCNCc1ccccc1 | 6.60
O=C1c2ccccc2C(=O)N1CCCCNCc1ccccc1F | 5.69
O=C1c2ccccc2C(=O)N1CCCCNCc1ccc(F)cc1F | 5.09
O=C1c2ccccc2C(=O)N1CCCCNCc1ccccc1 | 5.28
O=C1c2ccccc2C(=O)N1CCCCCNCc1cccc(Cl)c1 | 7.47
O=C1c2ccccc2C(=O)N1CCCCCCNCc1ccc(F)cc1 | 6.16

Hey, just so you know, these numbers are from ChEMBL document CHEMBL3414441.
